tested on: MS2 coat protein; assay: apparent KD of MS2 coat protein; designed switch direction (-1 OFF switch, 1 ON switch): -1; higher = weaker reporter binding; settings: Eterna round: R95; input ligand: microRNA oligo, concentration not stated
QUANTITY KIND: apparent KD of MS2 coat protein
Kindly write the number and append the unit.

Past entries and their recorded results:
SEQUENCE CODE | MEASURED RESULT
UAGAGACAUGAGGAUCACCCAUGUGAGGAUAUAGAGGAAGAUUGCGAGAGGGAGAGGACUAGAAGGCACAGUGA [JR_Exclu1_Sub034] (puzzle: Exclusion 1) | 35.2 nM
GCGUCGAGUGUGAGGAUAUGCUGGUCAUAAGAUCAGCAGAAGGCACAUGAGGAUCACCCAUGUGAAAACGAUGC [Mat - Exclusion 4 - JL Mod - D69] (puzzle: Brourd's mod of Exclusion 4) | 16.3 nM
GAGUGACAUGAGGAUCACCCAUGUGAGGAUAUCGGACGGACCAAAUUAACAACCGCCGCGAGAAGGCACAUCGG [Exclusion 1 V21] (puzzle: Exclusion 1) | 144 nM
UAAAAGCUAGGAUAUACAUGAGGAUCACCCAUGUCAACCACACGGAUGCGCCGAGCAUGUAGAAGGAGCACCGG [Soora] (puzzle: Exclusion 3) | 17 nM
GAGUGACAUGAGGAUCACCCAUGUGAGGAUAUCGGACGGACCAAAUUAACAACACCCGCGAGAAGGCACAUCGG [Exclusion 1 V21] (puzzle: Exclusion 1) | 110 nM
GAAUAGGCAGGAUAUACAUGAGGAUCACCCAUGUGCUUGCGAUAGGCACGUGAACAACGUAGAAGGGCCUUAAC [ChP 13.04.2015 #12] (puzzle: Exclusion 3) | 28.3 nM

Query block: Given the entry CUUGUUUAUGUGAGGAUAUACUGUUAGUAAUGUUUGUAGAAGGUACAUGAGGAUCACCCAUGUUUAUUUUUUUU [JR_BME4_Sub044] (puzzle: Brourd's mod of Exclusion 4) , what apparent KD of MS2 coat protein was observed with MS2 coat protein?
Result block: 20.2 nM

Query block: Could you share what apparent KD of MS2 coat protein was measured for GUGUGCUGAGGAUAUACAUAGGAAUAGAAUAGAAUAGAAUGACAUGAGGAUCACCCAUGUAGAAGGCAGAGUGU [Excluse me!! 13 - Jieux - Exclusion 2] (puzzle: Exclusion 2) , tested on MS2 coat protein?
Result block: 21.4 nM

Query block: Lab note: need apparent KD of MS2 coat protein with MS2 coat protein for entry CUCCUACAUGAGGAUCACCCAUGUCAGGAUAUCUCAGUGGCACCUAAAUUCGCCACCCAGAGAAGGGACGUGCA [Erralaorge] (puzzle: Exclusion 1) , please look it up.
Result block: 13.4 nM

Query block: Recall the recorded apparent KD of MS2 coat protein for ACCUUACAUGAGGAUCACCCAUGUCAGGAUAUCUCGGACAGCUGAAAACCAGCCGUCCAGAGAAGGGACGAGGA [Tiaza] (puzzle: Exclusion 1) with MS2 coat protein and state it.
Result block: 12.8 nM

Query block: Reported apparent KD of MS2 coat protein for MS2 coat protein, given UAUUAAUGCAAGGAUAUGCUAUUAAUUUUUUUUGCAGAAGGUGCAACAUGAGGAUCACCCAUGUUUGAGGGUAU [JR_E6_Sub029] (puzzle: Exclusion 6) ?
Result block: 55.9 nM

Query block: Requested read-out apparent KD of MS2 coat protein, target or system MS2 coat protein, entry UAAUACAAGCAAAGAUCCUACAUGAGGAUCACCCAUGUGUUCGUCUUAUAAAGUACUAUCACGAAAGUGAUAGUACA [Mat - Sensor v3 - turn-off var 1 - Eli Mod - D79] (puzzle: Sensor v3, turn-off variant 1)
Result block: 12.3 nM

Query block: Can you look up apparent KD of MS2 coat protein on MS2 coat protein for CUGGUCCGAGGAUAUAUUAUGUGAUACAUGAGGAUCACCCAUGUUAUAUGAUGGAAAUAAAUAGAAGGCGGACUAG [Mat - Exclusion 5 - JL mod - D67] (puzzle: Exclusion 5) ?
Result block: 70.5 nM

Query block: Param readout= apparent KD of MS2 coat protein; system= MS2 coat protein; entry= UUUUUGUCAGGAUAUGAUUAGAUCUACUUCGGUAGAUCUAAUCAGAAGGGACAUGAGGAUCACCCAUGUAGUUU [Ex4 - 3 - 12] (puzzle: Exclusion 4) ; returns value.
Result block: 35.2 nM

Query block: Which apparent KD of MS2 coat protein is reported with MS2 coat protein for this entry: GUGUAACUACACGGGCUCAACAUGAGGAUCACCCAUGUCAUACACGCAAGCUUUUUGCUUGUCUUAUCUGUCCGUGA [Raenzama] (puzzle: Sensor v3, turn-off variant 1) ?
Result block: 13.5 nM

Query block: Checklist item: apparent KD of MS2 coat protein tested on MS2 coat protein, entry ACGUGAUAUCUGUCGGUGGACAUGAGGAUCACCCAUGUAAGCUCUUUGCUCGUCUUAUAACCCGGUGACAGACCUUC [Xerile] (puzzle: Sensor v3, turn-off variant 1) , value?
Result block: 322 nM

Query block: Any idea what apparent KD of MS2 coat protein came out for UAGUGACAUGAGGAUCACCCAUGUGAGGAUAUAGUGAGAGAAAAAAGGAGAGAGAGGACUAGAAGGCACAGUGA [JR_Exclu1_Sub032] (puzzle: Exclusion 1) on MS2 coat protein?
Result block: 52.4 nM

Query block: State its apparent KD of MS2 coat protein on MS2 coat protein: GCUUGGCGAGGAUAUACAUGAGGAUCACCCAUGUGAGAGAAAUAAGUGAGGAAGAAAAGUAGAAGGCGCUGAGG [Mat - Exclusion 3 - Mod of Salish D59] (puzzle: Exclusion 3)
Result block: 58.9 nM

Query block: // fetch MS2 coat protein apparent KD of MS2 coat protein for GUAGAGACAGGAUAUACAUGAGGAUCACCCAUGUAAGGAGGAAGAGAGAGGAGAAGGAGUAGAAGGGUCAGAGG [JR_Exclu3_Sub029] (puzzle: Exclusion 3)
Result block: 35.3 nM

Query block: Param readout= apparent KD of MS2 coat protein; system= MS2 coat protein; entry= GAUUAUGCGAGCUUUAGGGACAUGAGGAUCACCCAUGUUCGUCUUAUUGGUCUGAAUGCACUGACAUACCUAAAUCU [JMF 76] (puzzle: Sensor v3, turn-off variant 1) ; returns value.
Result block: 24.2 nM

Query block: Checklist item: apparent KD of MS2 coat protein tested on MS2 coat protein, entry UCAAGUUUUUUGUUUUUUAACAUGAGGAUCACCCAUGUAUUUUUAUAGUAUGUGUGAAUAAGAUCUCGUGGUCUUAU [JR_SV3TOV1_Sub099] (puzzle: Sensor v3, turn-off variant 1) , value?
Result block: 78.1 nM
